# assay remarks: Toxicity of formulations on mammalian cell lines (cell viability, Coulter)
# Type: cell-based, murine
# experimental context: lb/62287 b-cell lymphoma, LB, 6 h, vehicle 1.0%; read-out: Relative Toxicity at 6 Hours
readout: viability at 6 h

viability at 6 h lookup needed for CCCCCCCC(=O)OCC(O)CO (stereo not shown) [IMWITOR ®, Glyceryl monocaprylate] , thanks.
25 to 49%

----------
# assay remarks: Toxicity of formulations on mammalian cell lines (cell viability, Coulter)
# Format: cell-based, murine
# experimental context: lb/62287 b-cell lymphoma, LB, 72 h, vehicle 1.0%; read-out: Relative Toxicity at 72 Hours
# Experimental: Cell Lines: A20: B-cell tumor cell line 9C127: T-cell hybridoma cell line LB/62287: B-cell lymphoma cell line P388.D1: Macrophage tumor cell line […] After a 72 hour or 6 hour incubation period, cells are harvested and counted by the Coulter Counter (Northwell Drive, England). Cell viability is determined using a Coulter Channelyzer. […]
readout: viability at 72 h

Data request, read-out viability at 72 h, for CCCCCCCC(=O)OCC(O)CO (stereo not shown) [IMWITOR ®, Glyceryl monocaprylate]
0 to 24%
